Data origin: PubChem BioAssay (NCI)

- test method notes: NCI Yeast Anticancer Drug Screen. Data for the rad14 strain (AID 159);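 note: 0% = growth of vehicle-treated control cultures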
- conditions used: S. cerevisiae rad14 strain growth inhibition; at 100.0 µM
The panel holds about 79,000 compounds, 15% with a hit somewhere; the sample as a whole holds those more often. Active and inactive are the calls of the source. Cut-off read from the data, not from the text of the source: active = growth inhibition above about 70%; inactive = the rest.
The reply should name one outcome from active, inactive

Study these solved cases before continuing.
# molecule, class
rows = [
    ("O=C(/C=C\\c1ccc([N+](=O)[O-])o1)Nc1ccc(Cl)cc1", "active"),
    ("COc1ccc(N=Nc2ccc3oc(=O)c(C(=O)Nc4ccccc4)cc3c2)cc1", "active"),
]

**Query** Which result was noted for this molecule in the test: CCOc1ccc(C(=O)CCC(=O)O)c(C)c1
**Result** inactive

**Query** Which result was noted for this molecule in the test: O=C(/C=C/c1cccc2ccccc12)c1ccc(Cl)cc1
**Result** inactive

**Query** Which result was noted for this molecule in the test: CCN(CC)CC(O)C1CCC(c2ccccc2)CC1 (stereo not drawn)
**Result** active

**Query** Which result was noted for this molecule in the test: C=C(C)[C@@H]1CCc2c(O)c(O)c(=O)cc(C)c2C1
**Result** active

---

- test method notes: NCI Yeast Anticancer Drug Screen. Data for the mgt1 strain (AID 153)
- conditions used: S. cerevisiae mgt1 mutant growth inhibition; at 11.0 µM; hits give high values
About 79,000 compounds went through this panel and 15% of them were active in at least one assay; those are over-represented in the sample as a whole.
Binary call on growth inhibition: True from 10% upward, False beneath that.

Study these solved cases before continuing.
# compound, class
rows = [
    ("Cc1ccc2c(ccc(/C=C/c3ccc(O)c4ncccc34)[n+]2C)c1", "True"),
    ("Nc1ccc(S(=O)(=O)Nc2ccc(Nc3c4ccccc4nc4ccccc34)cc2)cc1", "False"),
    ("Cc1ccc(CNc2ccc(Br)cc2)cc1", "True"),
    ("S=c1[nH]nc(-c2ccc(Cl)cc2)s1", "True"),
    ("COc1ccc(C(C#N)=C2C=CC(=NO)C=C2)cc1", "True"),
    ("COc1cc([C@@H]2c3cc4c(cc3[C@@H](OC3OC5COC(C)OC5C(O)C3O)[C@H]3COC(=O)[C@H]23)OCO4)cc(OC)c1O (stereo partly drawn)", "False"),
]

**Query** Does the compound O=C(CNS(=O)(=O)Cc1ccccc1)NNc1ccccc1 have recorded growth inhibition that is 10% or more?
**Result** True

**Query** Does the compound CCN(CC)CCNC(=O)c1nn(-c2ccc(Cl)cc2)c2c1CCc1cc(OC)ccc1-2 have recorded growth inhibition that is 10% or more?
**Result** False

**Query** Does the compound S=P(N1CC1)(N1CC1)N1CC1 have recorded growth inhibition that is 10% or more?
**Result** False

**Query** Does the compound Clc1cc(-c2ccccc2)nc2ccccc12 have recorded growth inhibition that is 10% or more?
**Result** True

**Query** Does the compound Clc1c(Cl)c(Cl)c2n[nH]nc2c1Cl have recorded growth inhibition that is 10% or more?
**Result** False

**Query** Does the compound CC[C@@]1(OC(=O)CN(C)C)C(=O)OCc2c1cc1n(c2=O)Cc2cc3c(N)cccc3nc2-1 have recorded growth inhibition that is 10% or more?
**Result** False

**Query** Does the compound S=C1SCN(CCc2ccccc2)CN1CCc1ccccc1 have recorded growth inhibition that is 10% or more?
**Result** True

---

- test method notes: NCI Yeast Anticancer Drug Screen. Data for the bub3 strain (AID 167)
- conditions used: S. cerevisiae bub3 mutant strain, at 50.0 µM (retest, dose inferred, filed as 5.0)
Compounds without any hit were thinned out: in the full panel of roughly 79,000, 15% have a hit. Calls of active or inactive are those of the source. No stated cut-off is given here; in the data, active means growth inhibition above about 70%; inactive means the rest.
The reply should name one outcome from active, inactive

Study these solved cases before continuing.
# compound, class
measured = [
    ("Cc1ccc(I)cc1N=C=S", "active"),
    ("Cc1ccc(N=Nc2ccc(O)c(C)c2)cc1", "active"),
]

**Query** Which result was noted for this compound in the test: S=c1cn[nH]c2ccc(Br)cc12
**Result** inactive

**Query** Which result was noted for this compound in the test: CNc1ccc(Cc2c[nH]c3ccccc23)cc1
**Result** active

**Query** Which result was noted for this compound in the test: CN(C)CCNc1cccc2sc3ccc(O)cc3c(=O)c12
**Result** inactive

**Query** Which result was noted for this compound in the test: N#CC(=C1C=CC(=NO)C=C1)c1ccccc1
**Result** active

**Query** Which result was noted for this compound in the test: COc1ccc(N=Nc2ccc3oc(=O)c(C(=O)Nc4ccccc4)cc3c2)cc1
**Result** active

---

- test method notes: NCI Yeast Anticancer Drug Screen. Data for the rad18 strain (AID 177)
- conditions used: S. cerevisiae rad18 mutant growth inhibition; at 33.0 µM
This is part of a sample that, as a whole, favours compounds with a hit. Of some 79,000 tested, about 15% had one in any assay. Calls of active or inactive are those of the source. Rule as the data show it: active = growth inhibition above about 70%; inactive = the rest.
The reply should name one outcome from Y for active, N for inactive

Study these solved cases before continuing.
# compound, class
rows = [
    ("O=C1c2cccc3cc([N+](=O)[O-])cc(c23)C(=O)N1CCN1CCCC1", "N"),
    ("CC(C)(C)[OH+][O-].[O-]c1ccc(Cl)cc1C=Nc1ccc(Cl)cc1[O-].[O]=[V]", "N"),
    ("CC(=O)C1(O)Cc2c(O)c3c(c(O)c2C(OC2CC(N)C(O)C(C)O2)C1)C(=O)c1ccccc1C3=O (stereo unspecified)", "Y"),
    ("CCCCOC(=O)CSSCC(=O)OCCCC", "Y"),
    ("O=C(N/N=C\\c1c(Cl)cccc1Cl)N/N=C/c1c(Cl)cccc1Cl", "N"),
]

**Query** Which result was noted for this compound in the test: OCCNCCOc1ccc(/C(=C(/Cl)c2ccccc2)c2ccccc2)cc1
**Result** Y

**Query** Which result was noted for this compound in the test: COc1ccc2c(c1)[nH]c1c(/C=C/c3ccccc3)nccc12
**Result** N

---

- test method notes: NCI Yeast Anticancer Drug Screen. Data for the mgt1 strain (AID 153)
- conditions used: S. cerevisiae mgt1 mutant growth inhibition; at 1.2 µM; hits give high values
Compounds without any hit were thinned out: in the full panel of roughly 79,000, 15% have a hit. Residues, ends and D or L forms follow the SMILES beside them. *: point of attachment. CH2Cl = ClC*
I'd appreciate it if you could supply growth inhibition values for the items below.
One number for each entry, in %.

# molecule, unit of measure, growth inhibition
records = [
    ("O=C(/C=N/O)Nc1cc(Cl)c(Cl)cc1Cl", "%", -8),
    ("NCc1c(O)ccc2ccccc12", "%", -2),
    ("O=C1NC(c2c(Cl)cccc2Cl)Nc2ccccc21 (centres undefined)", "%", -14),
    ("C=C(C)[C@@H]1CCc2c(O)c(O)c(=O)cc(C)c2C1", "%", 10),
    ("CN(C)CCN1C(=O)c2cccc3cc([N+](=O)[O-])cc(c23)C1=O", "%", -11),
    ("S=c1[nH]c2c(Cl)c(Cl)c(Cl)c(Cl)c2[nH]1", "%", 9),
]

For each entry beneath this line, provide reported growth inhibition.
1. CC(=O)NC(CC(C)C)C(=O)NC(Cc1ccccc1)C(=O)CCl (stereo not drawn) (Ac-Leu-Phe-CH2Cl; configuration not given here)
2. c1ccc2c(c1)Cn1c-2nc2ccccc21
3. COc1ccc(N=N/C(=N\NC(=O)c2cc(Br)ccc2O)c2ccc(N(CCC#N)CCC#N)cc2OC)cc1
4. COC(=O)/C=C1/OC(c2ccc(Br)cc2)=C(Br)C1=O
5. O=c1[nH]cc(/C=N\Nc2ccccc2)c(=O)[nH]1
6. O=C1c2ccccc2CCC1(Br)Br
7. CCC(C)(c1ccc(O)c(C)c1)c1ccc(O)c(C)c1

**Result**
[-5, 15, 33, 3, 3, 2, -49]

For each entry beneath this line, provide reported growth inhibition.
1. COc1cc2c(cc1C[N+](C)(C)CSc1ccccc1)-c1ccccc1CC2
2. S=C(S)NCC1CCC(CNC(=S)S)CC1 (centres undefined)
3. NNC(=S)Nc1cccc(Cl)c1
4. CCOC(=O)[C@]1(Br)CC[C@@]1(Br)C(=O)OCC
5. N#C/C(=C/c1c(Cl)cccc1Cl)C(N)=O

**Result**
1: 7; 2: -8; 3: -18; 4: -23; 5: -4

For each entry beneath this line, provide reported growth inhibition.
1. O=C1c2cccc3cc([N+](=O)[O-])cc(c23)C(=O)N1CCN1CCCC1
2. NC(N)=N/N=C/c1cc(Cl)cc(Cl)c1O
3. CN(C)CCNc1cccc2sc3ccc(O)cc3c(=O)c12
4. COc1ccc(N2CN(C)CSC2=S)cc1
5. CC(=O)[C@]1(O)Cc2c(O)c3c(c(O)c2[C@@H](OC2CC(N)C(O)C(C)O2)C1)C(=O)c1c(OCc2ccccc2)cccc1C3=O (some centres undefined)

**Result**
1: -6; 2: 18; 3: -1; 4: -51; 5: -2

For each entry beneath this line, provide reported growth inhibition.
1. Cc1ccc(Nc2n[nH]c(=S)s2)cc1
2. CCOc1ccc(C(=O)CCC(=O)O)c(C)c1
3. CC(=O)[O-].O=C([CH-]C(=O)c1ccccc1)c1ccccc1.O=C([CH-]C(=O)c1ccccc1)c1ccccc1.[Sm+3]
4. Clc1c(Cl)c(Cl)c2c(nnn2C2CCCO2)c1Cl (centres undefined)
5. ClCCn1c(CCl)nc2ccc(Cl)cc21

**Result**
[-6, -4, 0, -24, -29]
